Value source: PubChem BioAssay AID1963982

System: 313798-341-R-J2-PDC spheroids, viability;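 further: spheroids exposed to compounds for seven days; 100% = DMSO vehicle control viability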
Test Description: Anticancer human tumor 313798-341-R-J2-PDC patient-derived cervical squamous cell carcinoma cell line growth inhibition [PI3K]
Condition Description: second compound 10 µM; first compound 0.316 µM; active compounds read low; spheroids with HUVEC and MSC
Give viability, T/C for every item shown.
One number for each entry, in %.

// each listed molecule needs a value for viability, T/C
1. CNC(=O)c1ccc(N2C(=S)N(c3ccc(C#N)c(C(F)(F)F)c3)C(=O)C2(C)C)cc1F + Cc1nc(NC(=O)N2CCCC2C(N)=O)sc1-c1ccnc(C(C)(C)C(F)(F)F)c1
2. Cn1nccc1Nc1nccc(-c2ccn(C(CO)c3ccc(Cl)c(F)c3)c(=O)c2)n1 (stereo not given) + Cc1nc(NC(=O)N2CCCC2C(N)=O)sc1-c1ccnc(C(C)(C)C(F)(F)F)c1
3. CC1(C)CCC(CN2CCN(c3ccc(C(=O)NS(=O)(=O)c4ccc(NCC5CCOCC5)c([N+](=O)[O-])c4)c(Oc4cnc5[nH]ccc5c4)c3)CC2)=C(c2ccc(Cl)cc2)C1 + Cc1nc(NC(=O)N2CCCC2C(N)=O)sc1-c1ccnc(C(C)(C)C(F)(F)F)c1
4. CCN1CCN(Cc2ccc(Nc3ncc(F)c(-c4cc(F)c5nc(C)n(C(C)C)c5c4)n3)nc2)CC1 + Cc1nc(NC(=O)N2CCCC2C(N)=O)sc1-c1ccnc(C(C)(C)C(F)(F)F)c1
5. CC(C)NCC(C(=O)N1CCN(c2ncnc3c2C(C)CC3O)CC1)c1ccc(Cl)cc1 (stereo not given) + Cc1nc(NC(=O)N2CCCC2C(N)=O)sc1-c1ccnc(C(C)(C)C(F)(F)F)c1

a:
1. 38.5
2. 31.6
3. 38.1
4. 41.4
5. 34.6
